Assay Target: T1, GPC3 (UniProt P51654 25-559, limits assumed)
T1 construct: also called antigen GPC3; Glypican 3
T1 sequence (P51654 25-559 limits assumed): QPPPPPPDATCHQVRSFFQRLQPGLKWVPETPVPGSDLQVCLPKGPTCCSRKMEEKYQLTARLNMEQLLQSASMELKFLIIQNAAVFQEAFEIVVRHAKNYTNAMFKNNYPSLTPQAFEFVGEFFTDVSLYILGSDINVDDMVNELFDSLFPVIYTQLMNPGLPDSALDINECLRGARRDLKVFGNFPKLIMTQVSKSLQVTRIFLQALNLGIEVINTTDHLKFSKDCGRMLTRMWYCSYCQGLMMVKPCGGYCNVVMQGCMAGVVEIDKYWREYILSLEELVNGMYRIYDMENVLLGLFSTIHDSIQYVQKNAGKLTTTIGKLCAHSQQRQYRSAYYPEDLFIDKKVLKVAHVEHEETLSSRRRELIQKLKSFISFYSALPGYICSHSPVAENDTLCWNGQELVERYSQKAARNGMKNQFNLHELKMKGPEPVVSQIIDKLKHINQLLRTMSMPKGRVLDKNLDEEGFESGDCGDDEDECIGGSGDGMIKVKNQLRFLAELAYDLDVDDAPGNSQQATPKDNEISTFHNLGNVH
Method Description: SPR (Biacore T200); scFv-Fc captured by anti-human Fc pAb, GPC3 10-320 nM in flow
For each of the binders below, state its Kd.
Response body: numeric value in nM, unit text excluded.

Input: // lookup Kd for mouse anti-GPC3 GC33 scFv (VL-VH) (scFv, also called mouse scFv; not shown: C-terminal Fc tag (human Fc, used only for capture on the anti-human Fc chip) and any junction to it) scFv: DVVMTQTPLSLPVSLGDQASISCRSSQSLVHSNGNTYLHWYLQKPGQSPKLLIYKVSNRFSGVPDRFSGSGSGTDFTLKISRVEAEDLGVYFCSQNTHVPPTFGSGTKLEIKGGGGSGGGGSGGGGSQVQLQQSGAELVRPGASVKLSCKASGYTFTDYEMHWVKQTPVHGLKWIGALDPKTGDTAYSQKFKGKATLTADKSSSTAYMELRSLTSEDSAVYYCTRFYSYTYWGQGTLVTVSA
Output: 1.8

Input: // lookup Kd for VL1.M2-VH2.M6 humanized scFv (scFv, not shown: a dimerising Fc or GST, Crude scFv with Fc tag from HEK293 supernatant) scFv: DIVMTQTPLSLSVTPGQPASISCRSSQSLVHSNGNTYLHWYLQKPGQSPQLLIYKVSSRFSGVPDRFSGSGSGTDFTLKISRVEAEDVGVYYCSQNTHVPPTFGQGTKVEIKGGGGSGGGGSGGGGSQVQLVQSGAEVKKPGASVKVSCKASGYTFTSYEMHWVRQAPGQGLEWMGALDPKTGDTAYSQKFQGRVTLTADTSTSTVYMELSSLRSEDTAVYYCTRFYSYTYWGQGTLVTVSS
Output: 2.7

Input: // lookup Kd for VL1.M2-VH2 humanized scFv (scFv, not shown: a dimerising Fc or GST, Crude scFv with Fc tag from HEK293 supernatant) scFv: DIVMTQTPLSLSVTPGQPASISCRSSQSLVHSNGNTYLHWYLQKPGQSPQLLIYKVSSRFSGVPDRFSGSGSGTDFTLKISRVEAEDVGVYYCSQNTHVPPTFGQGTKVEIKGGGGSGGGGSGGGGSQVQLVQSGAEVKKPGASVKVSCKASGYTFTDYEMHWVRQAPGQGLEWMGALDPKTGDTAYSQKFKGRVTLTADTSTSTVYMELSSLRSEDTAVYYCTRFYSYTYWGQGTLVTVSS
Output: 2.2

Where do the numbers come from? From patent US20250297029A1.
